# key: entry, value: SH2 binding enrichment
molecular target: c-Src SH2; assay: SH2 binding enrichment of the phosphorylated peptide, bacterial display (enrichment ratio); higher = better substrate or ligand; peptides without Tyr show the background
# print the numeric value only

May I ask what SH2 binding enrichment has been recorded for ASNFNYFFHRE [KCNA1_Y413_V408A_YF] ?
0.6

May I ask what SH2 binding enrichment has been recorded for TKDTFYKQPVF [GBA_Y451_M455V] ?
0.417

May I ask what SH2 binding enrichment has been recorded for QKMADYSNKLH [PDPR_Y104_Y109H] ?
0.466

May I ask what SH2 binding enrichment has been recorded for DDERGYRRVRC [GIGYF2_Y268_S273C] ?
0.658

May I ask what SH2 binding enrichment has been recorded for MTKEQYIKMNR [ARFGEF2_Y797] ?
0.454

May I ask what SH2 binding enrichment has been recorded for EGNEQYEGYCV [GRIA3_Y451_R450Q] ?
1.23

May I ask what SH2 binding enrichment has been recorded for LARNMYDKEYY [MET_Y1230_D1228N] ?
0.71

May I ask what SH2 binding enrichment has been recorded for HISGVYKLPPD [ANGPTL7_Y145_R140H] ?
0.459

May I ask what SH2 binding enrichment has been recorded for RDMNACIRPSP [MMAA_Y207_Y207C] ?
0.58

* * *

biological target: c-Src SH2; test: SH2 binding enrichment of the phosphorylated peptide, bacterial display (enrichment ratio); higher = better substrate or ligand; peptides without Tyr show the background
# key: entry, value: SH2 binding enrichment
# print the numeric value only

May I ask what SH2 binding enrichment has been recorded for RHPREYQDLLN [DES_Y388_L385P] ?
1.29

May I ask what SH2 binding enrichment has been recorded for QADIIYVNTQL [MERTK_Y872_V870I] ?
0.475

May I ask what SH2 binding enrichment has been recorded for IRQGHYESLKE [MTR_Y921_D919G] ?
5.48

May I ask what SH2 binding enrichment has been recorded for CWAVKYLQMVG [AVPR2_Y117_R113W] ?
0.92

May I ask what SH2 binding enrichment has been recorded for FSTDCYRVGGH [NTRK2_Y707_Y706C_YF] ?
0.636

May I ask what SH2 binding enrichment has been recorded for ISTAGYSIPEL [EDAR_Y406] ?
7.33

May I ask what SH2 binding enrichment has been recorded for VNYQPYRKHKY [TEX37_Y28_D24N] ?
0.568

May I ask what SH2 binding enrichment has been recorded for YAGRDYSLDEF [MYOF_Y1705_G1701A] ?
0.909

* * *

# key: entry, value: phosphorylation enrichment
target: FGFR3 (UniProt P22607); assay: phosphorylation enrichment, bacterial display (enrichment ratio); higher = better substrate or ligand; peptides without Tyr show the background
Sequence (P22607 whole entry, looked up): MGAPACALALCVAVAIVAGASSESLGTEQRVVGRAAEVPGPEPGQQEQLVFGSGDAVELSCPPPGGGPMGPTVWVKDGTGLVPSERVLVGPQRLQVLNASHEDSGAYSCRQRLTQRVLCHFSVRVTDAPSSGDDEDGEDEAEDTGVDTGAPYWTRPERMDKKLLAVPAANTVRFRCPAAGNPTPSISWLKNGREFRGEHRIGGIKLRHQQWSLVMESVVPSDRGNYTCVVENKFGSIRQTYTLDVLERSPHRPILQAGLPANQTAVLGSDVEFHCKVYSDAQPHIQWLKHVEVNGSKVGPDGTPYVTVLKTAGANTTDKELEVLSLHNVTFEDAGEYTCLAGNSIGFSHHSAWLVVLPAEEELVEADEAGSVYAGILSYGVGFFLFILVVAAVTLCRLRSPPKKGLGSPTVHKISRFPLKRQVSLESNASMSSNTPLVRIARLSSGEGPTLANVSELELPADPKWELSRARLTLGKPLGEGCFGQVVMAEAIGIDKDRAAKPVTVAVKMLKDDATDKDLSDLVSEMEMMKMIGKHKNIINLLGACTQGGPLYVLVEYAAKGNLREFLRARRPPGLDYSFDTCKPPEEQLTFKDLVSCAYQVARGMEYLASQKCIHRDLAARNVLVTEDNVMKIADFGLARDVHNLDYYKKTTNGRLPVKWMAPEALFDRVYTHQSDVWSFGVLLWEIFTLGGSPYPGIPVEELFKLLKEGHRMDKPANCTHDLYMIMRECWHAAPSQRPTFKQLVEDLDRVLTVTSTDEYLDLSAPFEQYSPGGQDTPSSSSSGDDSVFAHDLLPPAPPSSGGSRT
# print the numeric value only

monomer-sequence: ELTTCYRKKCC [CCBE1_Y70]
phosphorylation enrichment: 0.507

monomer-sequence: IMAYFYMCDSA [CASD1_Y382_R386S]
phosphorylation enrichment: 2.25

monomer-sequence: RFGKVYKGHLF [ROR2_Y488]
phosphorylation enrichment: 0.754

May I ask what phosphorylation enrichment has been recorded for CVVVPYEPPEV [TP53_Y220_S215C] ?
1.03

May I ask what phosphorylation enrichment has been recorded for RDLHTYIMPAH [PNMT_Y256_R254H] ?
1.04

May I ask what phosphorylation enrichment has been recorded for LFHENYNAGTF [CFI_Y421_I416L_YF] ?
0.941

May I ask what phosphorylation enrichment has been recorded for DAAEDYAEGVC [DHODH_Y194_R199C] ?
0.895

May I ask what phosphorylation enrichment has been recorded for FETVKYFNNER [ABCB7_Y345_YF] ?
0.606

May I ask what phosphorylation enrichment has been recorded for KGELCYMHSRV [ABCD1_Y281_R280C] ?
0.682

May I ask what phosphorylation enrichment has been recorded for ENKGVYVLMSG [IVD_Y277] ?
1.79

May I ask what phosphorylation enrichment has been recorded for ALARKYHGGGG [HBB_Y146_H144R] ?
0.33

May I ask what phosphorylation enrichment has been recorded for RLLRGHDQFAF [HLA-B_Y137_YF] ?
0.472

May I ask what phosphorylation enrichment has been recorded for SSSNPYSTVTM [ACTN2_Y599] ?
0.486

May I ask what phosphorylation enrichment has been recorded for MIAIRYSHSRR [ACOXL_Y260_T255M] ?
0.518

* * *

target: c-Src SH2; experiment: SH2 binding enrichment of the phosphorylated peptide, bacterial display (enrichment ratio); higher = better substrate or ligand; peptides without Tyr show the background
test-readout: SH2 binding enrichment

Below, each entry is followed by its recorded SH2 binding enrichment result.
monomer-sequence: ADGLEYSRTEL [MMUT_Y287_G291E]
SH2 binding enrichment: 0.447
//
monomer-sequence: ISRASYFRKGG [ALK_Y1282_Y1278S_YF]
SH2 binding enrichment: 0.45
//
monomer-sequence: QLAPQYTFTQG [FLNA_Y1761_A1764T_YF]
SH2 binding enrichment: 0.635

# value lookup — system c-Src SH2, readout SH2 binding enrichment, item LFSGDCFRIQG [DDR2_Y740_Y740C_YF]
0.553

# value lookup — system c-Src SH2, readout SH2 binding enrichment, item HAVFVYDICHV [TWNK_Y508_YF]
0.531

# value lookup — system c-Src SH2, readout SH2 binding enrichment, item PPVVNYEEDAR [FER_Y402]
0.806

* * *

# key: entry, value: phosphorylation enrichment
target: FGFR1 (UniProt P11362); assay: phosphorylation enrichment, bacterial display (enrichment ratio); higher = better substrate or ligand; peptides without Tyr show the background
Sequence (P11362 whole entry, looked up): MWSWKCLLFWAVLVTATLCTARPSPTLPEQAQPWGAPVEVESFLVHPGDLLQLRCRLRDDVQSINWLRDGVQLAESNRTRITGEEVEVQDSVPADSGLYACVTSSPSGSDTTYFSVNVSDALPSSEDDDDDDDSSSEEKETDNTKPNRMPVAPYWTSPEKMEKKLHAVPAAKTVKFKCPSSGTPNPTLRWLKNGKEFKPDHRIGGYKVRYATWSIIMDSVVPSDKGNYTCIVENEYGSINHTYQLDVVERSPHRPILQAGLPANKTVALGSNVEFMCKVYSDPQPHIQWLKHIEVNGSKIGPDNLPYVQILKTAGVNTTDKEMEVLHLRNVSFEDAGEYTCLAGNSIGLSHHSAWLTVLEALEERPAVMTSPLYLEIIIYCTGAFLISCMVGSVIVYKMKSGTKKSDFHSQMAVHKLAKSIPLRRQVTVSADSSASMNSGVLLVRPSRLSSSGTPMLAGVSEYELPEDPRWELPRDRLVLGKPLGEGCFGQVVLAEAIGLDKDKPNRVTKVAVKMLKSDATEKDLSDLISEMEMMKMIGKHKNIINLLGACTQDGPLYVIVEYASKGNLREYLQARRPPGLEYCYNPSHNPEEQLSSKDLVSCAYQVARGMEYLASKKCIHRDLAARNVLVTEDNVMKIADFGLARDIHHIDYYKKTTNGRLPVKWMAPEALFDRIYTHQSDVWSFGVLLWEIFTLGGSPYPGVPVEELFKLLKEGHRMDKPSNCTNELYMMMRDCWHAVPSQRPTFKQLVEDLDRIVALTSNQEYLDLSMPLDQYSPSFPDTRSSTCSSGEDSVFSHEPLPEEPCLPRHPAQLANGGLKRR
# print the numeric value only

Below, each entry is followed by its recorded phosphorylation enrichment result.
monomer-sequence: ADEEFYEIIAA [FEStide_F_2014]
phosphorylation enrichment: 1.5
--
monomer-sequence: KDHPDYKYQAR [SOX10_Y171_P175A]
phosphorylation enrichment: 0.416
--
monomer-sequence: QSPQLYKQMCI [DARS1_Y253]
phosphorylation enrichment: 0.461

May I ask what phosphorylation enrichment has been recorded for NNKKDYFDMFE [SLC26A3_Y526_K521N_YF] ?
5.31

May I ask what phosphorylation enrichment has been recorded for MAFDRYVAICA [OR52J3_Y125_V128I] ?
0.586

May I ask what phosphorylation enrichment has been recorded for AVLSLYASGRN [ACTA1_Y145_T150N] ?
0.436

May I ask what phosphorylation enrichment has been recorded for KVKPIYLHTQG [AR_Y916_F917L] ?
0.441

May I ask what phosphorylation enrichment has been recorded for KGELRYMHSPV [ABCD1_Y281_R285P] ?
0.364

May I ask what phosphorylation enrichment has been recorded for LAGRYYALKSM [CKB_Y174] ?
1.45

May I ask what phosphorylation enrichment has been recorded for LRSRVYEVPVE [SLC26A3_Y756_N753S] ?
0.722

May I ask what phosphorylation enrichment has been recorded for IALNSYHSRNC [IFNGR1_Y397] ?
0.464

May I ask what phosphorylation enrichment has been recorded for NGLVACKDGKL [PMM2_Y76_Y76C] ?
0.392

* * *

biological target: SHP2-C SH2; assay: SH2 binding enrichment of the phosphorylated peptide, bacterial display (enrichment ratio); higher = better substrate or ligand; peptides without Tyr show the background
Threshold check on SH2 binding enrichment: at or above 0.9 gives criterion met, strictly below gives criterion not met.

Take a look at these entries with their results.
monomer-sequence: EVASVYESFQP [MAVS_Y92_Q93E_YF]
assigned-label: criterion not met
--
monomer-sequence: LGGAMYFLEAD [PKHD1_Y452_E457D_YF]
assigned-label: criterion not met
--
monomer-sequence: FQHLRYIKQLG [SAMHD1_Y146_R143H]
assigned-label: criterion not met
--
monomer-sequence: SNKELYEKYMI
assigned-label: criterion not met
--
monomer-sequence: GSIQQYTFKQE [PRG4_Y1271_I1272T_YF]
assigned-label: criterion met
--
monomer-sequence: FVSIVCNDSGE [TSC2_Y1650_Y1650C]
assigned-label: criterion not met

Could you verify whether the entry TTPYNYSYIFK [RAB14_Y8_A4T] shows SH2 binding enrichment of no less than 0.9?
criterion met

Could you verify whether the entry DAVKHYMQFRK [CNGA2_Y395] shows SH2 binding enrichment of no less than 0.9?
criterion not met

Could you verify whether the entry MKVPLYETPAG [PGM5_Y358_V357L] shows SH2 binding enrichment of no less than 0.9?
criterion met

Could you verify whether the entry VNFDFYTVNLG [GFPT1_Y367_D366Y_YF] shows SH2 binding enrichment of no less than 0.9?
criterion met

Could you verify whether the entry PTYENYANSTQ [SLC12A3_Y70_H69N] shows SH2 binding enrichment of no less than 0.9?
criterion not met

Could you verify whether the entry CTTIHYHYMCN [TP53_Y234_N235H] shows SH2 binding enrichment of no less than 0.9?
criterion met

Could you verify whether the entry FVKEPYIQSRF [HIPK4_Y175_YF] shows SH2 binding enrichment of no less than 0.9?
criterion not met
